- MEASUREMENT_NOTES: Pharmacokinetic study in male ICR mice
- Format: in vivo, mouse
- CONDITIONS: male, ICR, mouse, plasma, po, 10 mg/kg, male ICR mice, 10 mg/kg PO, mean of 3 animals; read-out: AUC(0-t)

# MOLECULE, AUC(0-t) [ng·h/mL]
rows = [
    ("CC1(C)CCC(c2ccc(Cl)cc2)=C(CN2CCN(c3ccc(C(=O)NS(=O)(=O)c4ccc(NCCCN5CCN(CCCC#Cc6cccc7c6CN(C6CCC(=O)NC6=O)C7=O)CC5)c(S(=O)(=O)C(F)(F)F)c4)cc3)CC2)C1 (stereo not shown)", 193),
]

----------
- MEASUREMENT_NOTES: Pharmacokinetic study in male ICR mice
- Format: in vivo, mouse
- CONDITIONS: male, ICR, mouse, plasma, iv, 2 mg/kg, male ICR mice, 2 mg/kg IV, individual animals (Mouse 1-3); read-out: MRT(0-∞)
VALUE_TYPE: MRT inf

# COMPOUND, RESULT
measured = [
    ("CC1(C)CCC(c2ccc(Cl)cc2)=C(CN2CCN(c3ccc(C(=O)NS(=O)(=O)c4ccc(NCCCN5CCN(CCCC#Cc6cccc7c6CN(C6CCC(=O)NC6=O)C7=O)CC5)c(S(=O)(=O)C(F)(F)F)c4)cc3)CC2)C1 (stereo not shown) [SIAIS361034]", "15.6 min"),
]

----------
- MEASUREMENT_NOTES: Pharmacokinetic study in male ICR mice
- Format: in vivo, mouse
- CONDITIONS: male, ICR, mouse, plasma, iv, 2 mg/kg, male ICR mice, 2 mg/kg IV, mean of 3 animals; read-out: Tmax

# MOLECULE, Tmax (min)
data = [
    ("CC1(C)CCC(c2ccc(Cl)cc2)=C(CN2CCN(c3ccc(C(=O)NS(=O)(=O)c4ccc(NCCCN5CCN(CCCC#Cc6cccc7c6CN(C6CCC(=O)NC6=O)C7=O)CC5)c(S(=O)(=O)C(F)(F)F)c4)cc3)CC2)C1 (stereo not shown)", 4.98),
]

Sourced from paper PMC9691367
